Test system: NCI-H226 lung
Test: NCI-60 one-dose screen, 48 h (100 = growth as untreated, 0 = no growth, -100 = all killed)
Settings: 10 µM unless noted
About 83,000 compounds went through this panel and 20% of them were active in at least one assay; those are over-represented in the sample as a whole.
Checkbox rule: growth lower than 20% = label 1; growth not lower than 20% = label 0.

Would you kindly verify if growth of Cn1ccnc1C(=O)/C=C/c1ccc(CNC(=O)c2ccc(F)cc2)cc1 is strictly less than 20%?
label 0

Would you kindly verify if growth of Cc1cccc(/C=C/C(=O)Nc2ncc(Cc3cccc(C)c3)s2)c1 is strictly less than 20%?
label 1

Would you kindly verify if growth of CCOc1ccc(C(=O)Nc2ncc(Cc3ccc(F)cc3)s2)cc1 is strictly less than 20%?
label 0

Would you kindly verify if growth of CC(Nc1c(C#N)cnc2ccc(-c3cnc(N)nc3)cc12)c1ccccc1 (stereo not given) is strictly less than 20%?
label 1

Would you kindly verify if growth of COc1cc(-c2nc(SCCC(C)C)nc(NNC(=O)c3ccncc3)c2C#N)cc(OC)c1OC is strictly less than 20%?
label 0

====

Tested on: SN12C renal
Test: NCI-60 one-dose screen, 48 h (100 = growth as untreated, 0 = no growth, -100 = all killed)
Settings: 10 µM unless noted
The panel holds about 83,000 compounds, 20% with a hit somewhere; the sample as a whole holds those more often.
yes (1) means recorded growth is 40% or above; no (0) means it is below 40%.

Has N/C(=N\C(N)=N\c1nc2ccccc2s1)c1ccc(C(F)(F)F)cc1 a recorded growth greater than or equal to 40%?
no (0)

Has O=S(=O)(Nc1ccc(I)cc1Cl)c1ccc(-c2cnc(C3CC3)o2)cc1 a recorded growth greater than or equal to 40%?
yes (1)

Has Cn1ccnc1C(=O)/C=C/c1ccc(CNC(=O)c2ccc(S(F)(F)(F)(F)F)cc2)cc1 a recorded growth greater than or equal to 40%?
no (0)

Has COc1cc2c(cc1OC)C(Sc1ccc(F)cc1)c1c(nc(N)c(C#N)c1N)O2 (centres undefined) a recorded growth greater than or equal to 40%?
no (0)

Has O=C(NCc1ncc[nH]1)c1ccc(-c2nc3ccc4[nH]ncc4c3c3c2CCCC3)cc1 a recorded growth greater than or equal to 40%?
no (0)

Has COc1cc2nc(Cl)nc(Nc3cccc(C4=Nc5c(N)nc(N)nc5NC(c5ccc6c(c5)OCO6)C4)c3)c2cc1OC (centres undefined) a recorded growth greater than or equal to 40%?
yes (1)

Has O=[N+]([O-])c1cc(/C=N/Nc2nc(N/N=C/c3ccc(Cl)c([N+](=O)[O-])c3)nc(N3CCCCC3)n2)ccc1Cl a recorded growth greater than or equal to 40%?
yes (1)

Has COc1cc(-c2nn(C(C)(C)C)cc2-c2ccnc(NCCCNS(=O)(=O)c3ccccc3)n2)ccc1Cl a recorded growth greater than or equal to 40%?
yes (1)

Has COc1ccccc1NC1=C(Cl)C(=O)c2nc(C)ccc2C1=O a recorded growth greater than or equal to 40%?
no (0)

====

Test system: SF-295 CNS
Assay: NCI-60 one-dose screen, 48 h (100 = growth as untreated, 0 = no growth, -100 = all killed)
Details: 10 µM unless noted
This is part of a sample that, as a whole, favours compounds with a hit. Of some 83,000 tested, about 20% had one in any assay. Activity calls are given as the source filed them. How the source made its calls: active means growth percent below 10; inactive means the rest.
Please go through the items and note down their growth.

Documented growth of C#CCOc1ccc(/C=N\Nc2nc(-c3ccc(C)cc3)cs2)cc1OC : 92.4% (inactive)

Documented growth of Cc1ccc(CSc2nc(-c3ccc(Cl)cc3)c(C#N)c(N3CCNCC3)n2)cc1 : 95.4% (inactive)

Documented growth of COc1cc(-c2nn(C(C)(C)C)cc2-c2ccnc(NCCCNS(=O)(=O)c3ccc(Cl)cc3)n2)ccc1Cl : 59.6% (inactive)

Documented growth of N/C(=N\C(N)=N\c1nc2ccccc2s1)c1cccc(F)c1 : 87.8% [5 µM] (inactive)

Documented growth of COc1ccc([C@@H]2c3[nH]c4ccccc4c3C[C@H]3C(=O)N(C4CCN(CC5CCCCC5)CC4)CC(=O)N23)c(OC)c1 : 98.6% (inactive)
